# System name: Leukotriene A-4 hydrolase (Homo sapiens, UniProt P09960)
# Sequence (P09960 whole entry): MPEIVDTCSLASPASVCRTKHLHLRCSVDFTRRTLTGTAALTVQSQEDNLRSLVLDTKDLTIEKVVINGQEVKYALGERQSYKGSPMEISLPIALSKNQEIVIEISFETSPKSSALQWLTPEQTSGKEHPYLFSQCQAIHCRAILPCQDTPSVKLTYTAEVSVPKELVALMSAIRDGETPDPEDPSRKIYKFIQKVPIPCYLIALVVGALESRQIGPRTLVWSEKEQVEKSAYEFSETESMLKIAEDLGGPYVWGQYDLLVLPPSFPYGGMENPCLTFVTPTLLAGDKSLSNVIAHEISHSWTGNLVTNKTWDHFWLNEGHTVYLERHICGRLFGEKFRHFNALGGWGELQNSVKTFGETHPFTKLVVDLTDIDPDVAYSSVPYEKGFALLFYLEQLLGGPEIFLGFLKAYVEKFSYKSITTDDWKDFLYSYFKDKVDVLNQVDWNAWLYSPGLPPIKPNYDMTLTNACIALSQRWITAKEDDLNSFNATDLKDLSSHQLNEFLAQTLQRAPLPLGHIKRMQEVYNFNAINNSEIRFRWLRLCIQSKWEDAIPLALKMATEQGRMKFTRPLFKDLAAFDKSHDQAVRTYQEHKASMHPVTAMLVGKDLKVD
pIC50: −log10 of the molar value.
Attribute measured: pIC50

• CN(CCCN(C)Cc1ccc(C(=O)O)cc1)CC(=O)Nc1ccc(OCC(O)c2ccccc2)cc1 (centres undefined) = 6.68
• CN(CCCN(C)Cc1ccc(C(=O)O)cc1)CC(=O)Nc1ccc(Oc2ccc(Cl)cc2)cc1 = 7.05
• CN(Cc1ccc(C(=O)O)cc1)C1CCCN(CC(=O)Nc2ccc(Oc3ccccc3)cc2)CC1 (centres undefined) = 6.66
• CN(CC(=O)Nc1ccc(Oc2ccccc2)cc1)C[C@H]1CCCN1Cc1ccc(C(=O)O)cc1 = 7.52
• CN(CCCN(C)CC1CCC(C(=O)O)CC1)CC(=O)Nc1ccc(Oc2ccccc2)cc1 (centres undefined) = 6.37
• CN(CCN(C)Cc1ccc(C(=O)O)cc1)CC(=O)Nc1ccc(Oc2ccccc2)cc1 = 6.85
• CN(CCCN(C)Cc1ccc(C(=O)O)cc1)CC(=O)Nc1ccc(Cc2ccccc2)cc1 = 7.15
• CN(CCCN(C)Cc1ccc(C(=O)O)cc1)CC(=O)Nc1ccc(Oc2ccc(F)cc2)cc1 = 6.92

* * *

pIC50: −log10 of the molar value.
Consider compounds characterized by their pIC50 with Leukotriene A-4 hydrolase (Homo sapiens).
Attribute measured: pIC50

- CN(CC(=O)Nc1ccc(Oc2ccccc2)cc1)C1CCCN(Cc2ccc(C(=O)O)cc2)CC1 (stereo not given): 6.42
- CN(CCCN(C)Cc1ccc(C(=O)O)c(Br)c1)CC(=O)Nc1ccc(Oc2ccccc2)cc1: 6.44
- CN(CCCN(C)Cc1ccc(C(=O)O)cc1)CC(=O)Nc1ccc(Oc2ccccc2F)cc1: 6.64

* * *

# System name: Leukotriene A-4 hydrolase (Homo sapiens)
Response field label: string, one of satisfied (IC50 strictly below 200 nM) or not satisfied.

• CN(CCCN(C)Cc1ccc(C(=O)O)o1)CC(=O)Nc1ccc(Oc2ccccc2)cc1 = not satisfied
• CN(CCCN(C)Cc1ccc(-c2nnn[nH]2)cc1)CC(=O)Nc1ccc(Oc2ccccc2)cc1 = not satisfied
• CN(CCCN(C)Cc1ccccc1)CC(=O)Nc1ccc(Oc2ccccc2)cc1 = not satisfied
• CN(CCCCC(=O)O)CCCN(C)CC(=O)Nc1ccc(Oc2ccccc2)cc1 = not satisfied
• CN(CCCN(C)Cc1ccc(C(=O)O)cc1)CC(=O)Nc1ccc(Oc2ccc(-c3ncco3)cc2)cc1 = satisfied
• CN(CCCN(C)Cc1ccc(C(=O)O)cc1[N+](=O)[O-])CC(=O)Nc1ccc(Oc2ccccc2)cc1 = not satisfied
• CN(Cc1ccc(C(=O)O)cc1)CC1CCCCN1CC(=O)Nc1ccc(Oc2ccccc2)cc1 (stereo in doubt; 4o) = satisfied
• CN(CC(=O)Nc1ccc(Oc2ccccc2)cc1)C1CCN(Cc2ccc(C(=O)O)cc2)C1 (stereo in doubt; 4t) = satisfied
• O=C(CN1CC2CC1CN2Cc1ccc(C(=O)O)cc1)Nc1ccc(Oc2ccccc2)cc1 (centres undefined) = not satisfied

* * *

Below: a set of entries, each annotated with reported bioavailability.
# Assay text: Oral bioavailability in rat
# Format: ADME, organism-based
# Run parameters: in vivo
Attribute measured: bioavailability (%)

- CN(CC(=O)Nc1ccc(Oc2ccccc2)cc1)C[C@H]1CCCN1Cc1ccc(C(=O)O)cc1: 45
- CN(CCCN(C)Cc1ccc(C(=O)O)cc1)CC(=O)Nc1ccc(Oc2ccccc2)cc1: 45

* * *

Measured half-life of individual entries
# Assay text: Half life in iv dosed rat
# Type: ADME, organism-based
# Run parameters: in vivo
Attribute measured: half-life (h)

• CN(CCCN(C)Cc1ccc(C(=O)O)cc1)CC(=O)Nc1ccc(Oc2ccccc2)cc1 = 0.9
• CN(CC(=O)Nc1ccc(Oc2ccccc2)cc1)C[C@H]1CCCN1Cc1ccc(C(=O)O)cc1 = 2.6

* * *

# System name: Leukotriene A-4 hydrolase (Homo sapiens)
Listed below: IC50 values for each entry.
Attribute measured: IC50 (nM)

* CN(C)CCCN(C)CC(=O)Nc1ccc(Oc2ccccc2)cc1 | 135
* CN(CCCC(=O)O)CCCN(C)CC(=O)Nc1ccc(Oc2ccccc2)cc1 | 1500
* O=C(CN1CCCN(Cc2ccc(C(=O)O)cc2)CC1)Nc1ccc(Oc2ccccc2)cc1 | 180
* CN(CC(=O)Nc1ccc(Oc2ccccc2)cc1)C1CCN(Cc2ccc(C(=O)O)cc2)C1 (stereo in doubt; 4u) | 220
* CN(CCCN(C)Cc1ccc(C(=O)O)cc1)CC(=O)Nc1ccc(Oc2ccccc2)cc1 | 120

* * *

pIC50: −log10 of the molar value.
Assay system UniProt:P09960; read-out recorded as pIC50.
Attribute measured: pIC50

- CN(Cc1ccc(C(=O)O)cc1)CC1CCCCN1CC(=O)Nc1ccc(Oc2ccccc2)cc1 (stereo in doubt; 4n): 7.00
- CN(CC(=O)Nc1ccc(Oc2ccccc2)cc1)C[C@@H]1CCCN1Cc1ccc(C(=O)O)cc1: 6.70
- CN(CCCN(C)Cc1ccc(C(=O)O)cc1F)CC(=O)Nc1ccc(Oc2ccccc2)cc1: 6.80

* * *

# Assay text: Metabolic stability in rat microsomes assessed as compound remaining after 1 hr
# Assay type: ADME, Microsome
# Run parameters: read-out: Stability
Attribute measured: remaining at 1 h

- CN(CCCN(C)Cc1ccc(C(=O)O)cc1)CC(=O)Nc1ccc(Oc2ccccc2)cc1: > 90%
- CN(CCCN(C)Cc1ccccc1)CC(=O)Nc1ccc(Oc2ccccc2)cc1: < 33%
- CN(C)CCCN(C)CC(=O)Nc1ccc(Oc2ccccc2)cc1: < 33%

* * *

# System name: Leukotriene A-4 hydrolase (Homo sapiens, UniProt P09960)
# Sequence (P09960 whole entry): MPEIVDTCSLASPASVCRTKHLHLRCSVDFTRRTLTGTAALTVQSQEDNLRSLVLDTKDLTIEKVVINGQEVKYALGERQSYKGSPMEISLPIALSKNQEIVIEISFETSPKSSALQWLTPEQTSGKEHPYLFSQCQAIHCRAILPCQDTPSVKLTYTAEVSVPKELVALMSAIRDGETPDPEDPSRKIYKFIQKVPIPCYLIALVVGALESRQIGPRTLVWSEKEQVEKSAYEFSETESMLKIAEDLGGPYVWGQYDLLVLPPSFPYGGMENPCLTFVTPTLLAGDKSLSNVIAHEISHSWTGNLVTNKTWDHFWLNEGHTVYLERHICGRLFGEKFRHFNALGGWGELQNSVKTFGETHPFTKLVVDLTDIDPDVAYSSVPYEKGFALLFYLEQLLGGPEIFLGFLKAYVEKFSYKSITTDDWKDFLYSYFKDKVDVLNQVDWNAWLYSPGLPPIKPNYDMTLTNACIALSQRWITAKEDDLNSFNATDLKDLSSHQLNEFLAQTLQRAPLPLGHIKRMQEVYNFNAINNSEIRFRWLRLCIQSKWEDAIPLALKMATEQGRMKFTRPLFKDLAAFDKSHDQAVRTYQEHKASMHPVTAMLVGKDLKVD
Response field label takes condition met when IC50 is strictly below 300 nM and condition not met in all other cases.

• CN(CCCNCc1ccc(C(=O)O)cc1)CC(=O)Nc1ccc(Oc2ccccc2)cc1 = condition not met
• CN(Cc1ccc(C(=O)O)cc1)C1CCN(CC(=O)Nc2ccc(Oc3ccccc3)cc2)CC1 = condition met
• CN(CCCN(C)Cc1ccc(C(=O)O)c(F)c1)CC(=O)Nc1ccc(Oc2ccccc2)cc1 = condition not met
• CN(CCCN(C)CC(=O)Nc1ccc(Oc2ccccc2)cc1)CCc1ccc(C(=O)O)cc1 = condition met
• CN(Cc1ccc(C(=O)O)cc1)CC1CCCN1CC(=O)Nc1ccc(Oc2ccccc2)cc1 (stereo in doubt; 4s) = condition met

* * *

# System name: Leukotriene A-4 hydrolase (Homo sapiens, UniProt P09960)
# Sequence (P09960 whole entry): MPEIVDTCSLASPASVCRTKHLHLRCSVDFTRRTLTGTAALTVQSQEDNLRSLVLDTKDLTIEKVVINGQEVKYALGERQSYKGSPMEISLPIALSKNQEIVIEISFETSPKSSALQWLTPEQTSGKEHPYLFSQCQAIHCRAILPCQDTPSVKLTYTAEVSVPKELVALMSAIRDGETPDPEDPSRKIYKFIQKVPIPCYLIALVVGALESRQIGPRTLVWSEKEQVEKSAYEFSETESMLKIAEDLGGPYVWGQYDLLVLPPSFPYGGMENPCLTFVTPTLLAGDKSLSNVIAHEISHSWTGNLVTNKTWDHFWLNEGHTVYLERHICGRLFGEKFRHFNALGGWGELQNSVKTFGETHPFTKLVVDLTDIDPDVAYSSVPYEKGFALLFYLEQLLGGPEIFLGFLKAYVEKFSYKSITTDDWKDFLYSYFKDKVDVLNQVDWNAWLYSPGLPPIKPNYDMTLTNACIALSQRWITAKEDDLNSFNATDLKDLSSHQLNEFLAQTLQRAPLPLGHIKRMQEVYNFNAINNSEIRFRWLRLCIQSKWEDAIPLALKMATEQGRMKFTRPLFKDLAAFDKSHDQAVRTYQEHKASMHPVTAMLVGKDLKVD
Attribute measured: IC50

- O=C(CN1CC2CC1CN2Cc1ccc(C(=O)O)cc1)Nc1ccc(Oc2ccccc2)cc1 (stereo not drawn): 44 nM
- CN(CCCN(C)CC(=O)Nc1ccc(Oc2ccccc2)cc1)CCc1ccc(C(=O)O)cc1: 3 nM
- CN(CC(=O)Nc1ccc(Oc2ccccc2)cc1)C[C@H]1CCCN1Cc1ccc(C(=O)O)cc1: 7 nM
- CN(CC(=O)Nc1ccc(Oc2ccccc2)cc1)C1CCN(Cc2ccc(C(=O)O)cc2)C1 (stereo in doubt; 4u): 57 nM
- CN(CCCNCC(=O)Nc1ccc(Oc2ccccc2)cc1)Cc1ccc(C(=O)O)cc1: 330 nM
- CN(CCCN(C)Cc1ccc(C(=O)O)cc1)CC(=O)Nc1ccc(Oc2ccc(F)cc2)cc1: 6 nM
- CN(CCCN(C)Cc1ccc(C(=O)O)cc1)CC(=O)Nc1ccc(Oc2ccc(Cl)cc2)cc1: 17 nM
- CN(CCCN(C)Cc1ccc(C(=O)O)cc1)CC(=O)Nc1ccc(Oc2ccc(-c3ncco3)cc2)cc1: 5 nM
- CN(CCCN(C)CC1CCC(C(=O)O)CC1)CC(=O)Nc1ccc(Oc2ccccc2)cc1 (stereo not drawn): 25 nM
- CN(CCCN(C)Cc1ccc(S(N)(=O)=O)cc1)CC(=O)Nc1ccc(Oc2ccccc2)cc1: 33 nM
- CN(CC(=O)Nc1ccc(Oc2ccccc2)cc1)C1CCN(Cc2ccc(C(=O)O)cc2)C1 (stereo in doubt; 4t): 120 nM
- CN(CCCN(C)Cc1ccc(C(=O)O)cc1)CC(=O)Nc1ccc(OCC(O)c2ccccc2)cc1 (stereo not drawn): 19 nM
- CN(Cc1ccc(C(=O)O)cc1)C1CCCN(CC(=O)Nc2ccc(Oc3ccccc3)cc2)CC1 (stereo not drawn): 140 nM
- CN(CC(=O)Nc1ccc(Oc2ccccc2)cc1)C[C@@H]1CCCN1Cc1ccc(C(=O)O)cc1: 100 nM
- O=C(CN1CCCN(Cc2ccc(C(=O)O)cc2)CC1)Nc1ccc(Oc2ccccc2)cc1: 70 nM
- O=C(CNCCCNCc1ccc(C(=O)O)cc1)Nc1ccc(Oc2ccccc2)cc1: 370 nM
- CN(Cc1ccc(C(=O)O)cc1)CC1CCCN1CC(=O)Nc1ccc(Oc2ccccc2)cc1 (stereo in doubt; 4r): 26 nM
- CN(CCCNCc1ccc(C(=O)O)cc1)CC(=O)Nc1ccc(Oc2ccccc2)cc1: 19 nM
